// provenance: ChEMBL document CHEMBL5614412

The following compounds have recorded pIC50 on Tyrosine-protein phosphatase non-receptor type 2 (Homo sapiens, UniProt P17706).
Sequence (P17706 whole entry): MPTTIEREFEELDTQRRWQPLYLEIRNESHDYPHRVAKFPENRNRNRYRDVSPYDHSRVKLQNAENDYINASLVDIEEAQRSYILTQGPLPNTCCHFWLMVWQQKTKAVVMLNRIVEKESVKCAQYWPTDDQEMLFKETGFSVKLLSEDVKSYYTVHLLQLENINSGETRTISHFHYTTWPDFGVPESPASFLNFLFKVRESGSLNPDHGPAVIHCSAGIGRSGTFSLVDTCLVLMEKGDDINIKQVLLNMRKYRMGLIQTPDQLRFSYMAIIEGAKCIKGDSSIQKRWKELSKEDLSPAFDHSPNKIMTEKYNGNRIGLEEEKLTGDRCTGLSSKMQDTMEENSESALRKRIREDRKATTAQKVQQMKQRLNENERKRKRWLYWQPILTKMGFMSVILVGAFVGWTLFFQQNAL
Keep it numeric: pIC50 is minus log10 of the concentration in mol/L.

- SMILES_TEXT: "CC(C)CCN[C@@H]1CCc2cc(O)c(N3CC(=O)NS3(=O)=O)c(F)c2C1"
  ENDPOINT_VALUE: 8.74

Lab note: next compound to report on.
Quick check: pIC50 on Tyrosine-protein phosphatase non-receptor type 2 (Homo sapiens, UniProt P17706), item O=C1CN(c2c(O)cc3ccc(NCC4CC4)cc3c2F)S(=O)(=O)N1 ?
8.41

====

Entries and their IC50 values follow.
System: B16
Experiment: Antiproliferative activity against mouse B16 cells
Type: functional, cell-based
Please respond with the number in nM and leave the unit unwritten.

- COMPOUND: "O=C1CN(c2c(O)cc3c(c2F)C[C@H](NCCC(F)F)N3)S(=O)(=O)N1"
  IC50 [nM]: 700

Sample CC(C)CCN[C@@H]1C[C@H]2C[C@@H]1c1c2cc(O)c(N2CC(=O)NS2(=O)=O)c1F — what was its IC50?
7820

Given the entry CC1CCN=C(Nc2cc(O)c(N3CC(=O)NS3(=O)=O)c(F)c2)N1 (centres undefined) , report its measured IC50.
5000

Request the reported IC50 associated with CC1(C)CCC[C@H](NCc2cc(O)c(N3CC(=O)NS3(=O)=O)c(F)c2)C1
770

Using the record for CC(C)CCNC1CNc2cc(O)c(N3CC(=O)NS3(=O)=O)c(F)c2C1 (centres undefined) , report its IC50.
1400

Would you kindly share the measured IC50 for CC[C@@H]1CCN(CCc2cc(O)c(N3CC(=O)NS3(=O)=O)c(F)c2)C1 ?
130

Quick check: IC50 of O=C1CN(c2c(O)cc3c(c2F)C[C@H](NCCCC(F)F)CS3)S(=O)(=O)N1 ?
160

Tell me the measured IC50 of CC(C)CCN[C@@H]1CCc2cc(O)c(N3CC(=O)NS3(=O)=O)c(F)c2C1 , please.
64

====

Molecular target: Protein cereblon/Tyrosine-protein phosphatase non-receptor type 2 (Homo sapiens, UniProt P17706+Q96SW2)
Sequence (Q96SW2 whole entry, one chain of several): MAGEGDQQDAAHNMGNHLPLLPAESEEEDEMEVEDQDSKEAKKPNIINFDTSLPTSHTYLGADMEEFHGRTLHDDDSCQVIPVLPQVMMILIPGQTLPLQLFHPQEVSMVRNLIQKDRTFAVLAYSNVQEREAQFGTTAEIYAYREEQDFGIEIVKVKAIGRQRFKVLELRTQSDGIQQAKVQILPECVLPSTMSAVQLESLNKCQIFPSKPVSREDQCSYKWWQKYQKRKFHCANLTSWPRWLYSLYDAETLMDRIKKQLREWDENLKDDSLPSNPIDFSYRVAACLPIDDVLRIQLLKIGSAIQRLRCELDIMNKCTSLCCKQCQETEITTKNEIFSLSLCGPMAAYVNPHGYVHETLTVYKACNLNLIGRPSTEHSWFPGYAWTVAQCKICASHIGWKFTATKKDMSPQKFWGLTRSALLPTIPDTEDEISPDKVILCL
Experiment: PROTAC activity at PTPN2/CRBN in HEK293 cells assessed as protein degradation measured for 48 hrs by Western blot analysis
Type: cell-based
Starred links: 1 amine or outer side, 2 acyl side, 3 side chain; linkers in the order of their positions; H or OH if unused. Non-standard residues stand in square brackets, D forms with d. Residues, ends and D or L forms follow the SMILES beside them. ξ: configuration not given here. *: point of attachment. NHCH2(1,3-C6H4)CH2CO = O=C(Cc1cccc(CN[*:1])c1)[*:2]; ξF2Pmp = NC(Cc1ccc(C(F)(F)P(=O)(O)O)cc1)C(=O)O; Benzoyl(3-Br,4-Me) = Cc1ccc(C(=O)*)cc1Br; ξPro(4R-OH) = O=C(O)C1C[C@@H](O)CN1; X2 = Cc1ncsc1-c1ccc([C@H](C)N*)cc1; Tle = CC(C)(C)[C@H](N)C(=O)O; X1 = COc1ccc(CC(=O)*)cc1O
Entries and their DC50
Give the number; nM is assumed, so skip it.

- COMPOUND: "CCc1ccc(C(=O)NCCCC[C@H](NC(=O)[C@H](Cc2ccc(C(F)(F)P(=O)(O)O)cc2)NC(=O)[C@H](Cc2ccccc2)NC(=O)O[C@H]2C[C@@H](C)CC[C@@H]2C(C)C)C(=O)NCCOCCC(=O)Nc2cccc3c2CN(C2CCC(=O)NC2=O)C3=O)cc1 (stereo not given in full)"
  DC50 (nM): 35.8
- COMPOUND: "Cc1ncsc1-c1ccc(C(C)CC(=O)[C@H]2C[C@H](O)CN2C(=O)[C@@H](NC(=O)CCCCCNC(=O)n2cc(-c3ccc4cc(O)c(N5CC(=O)NS5(=O)=O)c(F)c4c3)cn2)C(C)(C)C)cc1 (stereo not given in full)"
  DC50 (nM): 217
- COMPOUND: "COc1ccc(CC(=O)N[C@@H](Cc2ccccc2)C(=O)NC(Cc2ccc(C(F)(F)P(=O)(O)O)cc2)C(=O)N[C@@H](CCCCNC(=O)c2ccc(C)c(Br)c2)C(=O)NCc2cccc(CC(=O)N[C@H](C(=O)N3C[C@H](O)CC3C(=O)N[C@@H](C)c3ccc(-c4scnc4C)cc3)C(C)(C)C)c2)cc1O (stereo partly drawn) (X1-F[ξF2Pmp]K(Benzoyl(3-Br,4-Me))[NHCH2(1,3-C6H4)CH2CO][Tle][ξPro(4R-OH)]-X2)"
  DC50 (nM): 7

Continue with the next compound.
Need DC50 of Cn1c(=O)n(C2CCC(=O)NC2=O)c2ccc(-c3ccc(CC(=O)Nc4ccc5c(F)c(N6CC(=O)NS6(=O)=O)c(O)cc5c4)cc3)cc21 (stereo not given) , thanks.
10
